# Test system: LoVo-Dox
# Protocol description: SRB colorimetric assay of cell growth and viability, LoVo-Dox
# Format: cell-based, human
# Condition context: 48 hours exposure, SRB; read-out: LC50 LOVO-DOX
CC50: recorded values

Compound	Measurement target	CC50 [µM]
C/C=C1\NC(=O)[C@H](Cc2ccccc2)NC(=O)[C@@H](C(C)C)NC(=O)[C@@H]([C@@H](C)CC)NC(=O)[C@H](NC(=O)[C@H](NC(=O)[C@H](CCCNC(=O)C(F)(F)F)NC(=O)[C@H]2CCCN2C(=O)[C@H](NC(=O)[C@@H](NC(=O)[C@@H](NC(=O)[C@H](NC(=O)CC[C@@H](C)CC)C(C)C)[C@@H](C)OC(=O)C(F)(F)F)C(C)C)C(C)C)[C@@H](C)CC)[C@@H](C)OC(=O)[C@H](C(C)C)NC1=O [Compound 95]	LoVo-Dox	0.471
C/C=C1\NC(=O)[C@H](Cc2ccccc2)NC(=O)[C@@H](C(C)C)NC(=O)[C@@H]([C@@H](C)CC)NC(=O)[C@H](NC(=O)[C@H](NC(=O)[C@H](CCCN)NC(=O)[C@H]2CCCN2C(=O)[C@H](NC(=O)[C@@H](NC(=O)[C@@H](NC(=O)[C@H](NC(=O)CC[C@@H](C)[C@H]2CC[C@H]3[C@@H]4CC[C@@H]5C[C@H](OC(=O)C(F)(F)F)CC[C@]5(C)[C@H]4CC[C@]23C)C(C)C)[C@@H](C)OC(=O)C(F)(F)F)C(C)C)C(C)C)[C@@H](C)CC)[C@@H](C)OC(=O)[C@H](C(C)C)NC1=O [Compound 97]	LoVo-Dox	4.12
